test: Antiplatelet activity in human platelet rich plasma assessed as inhibition of ADP-induced platelet aggregation relative to AZD-6140; assay type: functional

# compound, fold change (FC)
measured = [
    ("CCCCCOC(=O)N1CCN(C(=O)[C@H](CCC(=O)O)NC(=O)c2cc(N3CCCC(CN4CCCC4)C3)cc(-c3ccccc3)n2)CC1 (stereo partly drawn)", 1.5),
    ("CCCCCOC(=O)N1CCN(C(=O)[C@H](CCC(=O)O)NC(=O)c2cc(N3CC[C@H](C(=O)N4CCCC4)C3)cc(-c3ccccc3)n2)CC1", 2.8),
    ("CCCCCOC(=O)N1CCN(C(=O)[C@H](CCC(=O)O)NC(=O)c2cc(N3CCN(C(=O)N(C)C)CC3)cc(-c3ccccc3)n2)CC1", 3.6),
    ("CCCCCOC(=O)N1CCN(C(=O)[C@H](CCC(=O)O)NC(=O)c2cc(N3CCC(CCN(C)C)CC3)cc(-c3ccccc3)n2)CC1", 0.54),
    ("CCCCCOC(=O)N1CCN(C(=O)[C@H](CCC(=O)O)NC(=O)c2cc(N3CCC(CCN4CCCC4)CC3)cc(-c3ccccc3)n2)CC1", 0.59),
    ("CCCCCOC(=O)N1CCN(C(=O)[C@H](CCC(=O)O)NC(=O)c2cc(N3CCC(C(=O)NC(C)C)CC3)cc(-c3ccccc3)n2)CC1", 0.64),
    ("CCCCOC(=O)N1CCN(C(=O)[C@H](CCC(=O)O)NC(=O)c2cc(N3CCC(CN(C)C)CC3)cc(-c3ccccc3)n2)CC1", 1.3),
    ("CCCCCOC(=O)N1CCN(C(=O)[C@H](CCC(=O)O)NC(=O)c2cc(N3CC[C@@H](OCC(=O)N(CC)CC)C3)cc(-c3ccccc3)n2)CC1", 0.38),
]
